Tested on: T1, recombinant mouse B7-H3 protein with C-terminal His tag (Sino Biological, 50973-M08H) (mouse, UniProt Q8VE98 29-244)
T1 construct: Bought; also called 마우스 B7-H3
T1 sequence (looked up): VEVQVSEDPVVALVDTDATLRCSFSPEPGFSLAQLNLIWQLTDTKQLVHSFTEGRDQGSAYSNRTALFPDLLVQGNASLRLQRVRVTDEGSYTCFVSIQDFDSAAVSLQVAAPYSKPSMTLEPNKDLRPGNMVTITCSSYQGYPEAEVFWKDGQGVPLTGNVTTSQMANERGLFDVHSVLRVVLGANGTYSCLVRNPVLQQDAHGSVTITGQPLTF
Protocol: ELISA, IgG on coated recombinant mouse B7-H3-His
Quantity kind: binding result

binder="anti-B7-H3 antibody F6V (full IgG form) (antibody, V domains shown) VH: EVQLLESGGGLVQPGGSLRLSCAASGFTFSDYAMSWVRQAPGKGLEWVSGISPGGSNTYYADSVKGRFTISRDNSKNTLYLQMNSLRAEDTAVYYCAKDAWIARLLLFDYWGQGTLVTVSS VL: QSVLTQPPSASGTPGQRVTISCSGSSSNIGSNAVTWYQQLPGTAPKLLIYYNNKRPSGVPDRFSGSKSGTSASLAISGLRSEDEADYYCGTWDDSLSGYVFGGGTKLTVLG" reported=binds
